- MEASUREMENT_DESCRIPTION: Cytostatic activity, inhibition of cell growth
- Assay type: cell-based, human
- RUN_PARAMETERS: human, HEL cells, Cytotoxicity Cell growth (CC50), Table 3
MEASUREMENT_LABEL: CC50 at 3 days (µM)
Number in µM, nothing else.

| COMPOUND | MEASUREMENT_LABEL | UNIT_ANNOTATION | RESULT |
| --- | --- | --- | --- |
| Nc1ccn(C[C@@H](CO)OCP(=O)(O)O)c(=O)n1 | CC50 at 3 days | µM | 170 |

Turning to the following compound.
Q: Quick check: CC50 at 3 days of O=c1[nH]c(=O)n([C@H]2C[C@H](O)[C@@H](CO)O2)cc1/C=C/Br [Brivudin, brivudin, reference compound] ?
Ans: 168

* * *

- ASSAY_TARGET: DNA pol β (Homo sapiens)
MEASUREMENT_LABEL: IC50

Q: Item O=C(O)P(=O)(O)O [PFA pyrophosphate] with DNA pol β (Homo sapiens) - IC50?
Ans: > 100 µM

* * *

- ASSAY_TARGET: HCMV DNA pol (Human cytomegalovirus, UniProt P08546)
- MEASUREMENT_DESCRIPTION: DNA polymerase inhibition, HCMV DNA pol
- Assay type: biochemical
- RUN_PARAMETERS: read-out: IC50 HCMV DNA pol dGTP; calf thymus DNA, radiolabeled [3H]dGTP
MEASUREMENT_LABEL: IC50
In your response, the unit should come after the numeric value.

Q: Item O=C(O)P(=O)(O)O [PFA pyrophosphate] with HCMV DNA pol (Human cytomegalovirus, UniProt P08546) - IC50?
Ans: 7 µM

* * *

- ASSAY_TARGET: DNA pol α (Homo sapiens)
- Sequence (P09884 whole entry): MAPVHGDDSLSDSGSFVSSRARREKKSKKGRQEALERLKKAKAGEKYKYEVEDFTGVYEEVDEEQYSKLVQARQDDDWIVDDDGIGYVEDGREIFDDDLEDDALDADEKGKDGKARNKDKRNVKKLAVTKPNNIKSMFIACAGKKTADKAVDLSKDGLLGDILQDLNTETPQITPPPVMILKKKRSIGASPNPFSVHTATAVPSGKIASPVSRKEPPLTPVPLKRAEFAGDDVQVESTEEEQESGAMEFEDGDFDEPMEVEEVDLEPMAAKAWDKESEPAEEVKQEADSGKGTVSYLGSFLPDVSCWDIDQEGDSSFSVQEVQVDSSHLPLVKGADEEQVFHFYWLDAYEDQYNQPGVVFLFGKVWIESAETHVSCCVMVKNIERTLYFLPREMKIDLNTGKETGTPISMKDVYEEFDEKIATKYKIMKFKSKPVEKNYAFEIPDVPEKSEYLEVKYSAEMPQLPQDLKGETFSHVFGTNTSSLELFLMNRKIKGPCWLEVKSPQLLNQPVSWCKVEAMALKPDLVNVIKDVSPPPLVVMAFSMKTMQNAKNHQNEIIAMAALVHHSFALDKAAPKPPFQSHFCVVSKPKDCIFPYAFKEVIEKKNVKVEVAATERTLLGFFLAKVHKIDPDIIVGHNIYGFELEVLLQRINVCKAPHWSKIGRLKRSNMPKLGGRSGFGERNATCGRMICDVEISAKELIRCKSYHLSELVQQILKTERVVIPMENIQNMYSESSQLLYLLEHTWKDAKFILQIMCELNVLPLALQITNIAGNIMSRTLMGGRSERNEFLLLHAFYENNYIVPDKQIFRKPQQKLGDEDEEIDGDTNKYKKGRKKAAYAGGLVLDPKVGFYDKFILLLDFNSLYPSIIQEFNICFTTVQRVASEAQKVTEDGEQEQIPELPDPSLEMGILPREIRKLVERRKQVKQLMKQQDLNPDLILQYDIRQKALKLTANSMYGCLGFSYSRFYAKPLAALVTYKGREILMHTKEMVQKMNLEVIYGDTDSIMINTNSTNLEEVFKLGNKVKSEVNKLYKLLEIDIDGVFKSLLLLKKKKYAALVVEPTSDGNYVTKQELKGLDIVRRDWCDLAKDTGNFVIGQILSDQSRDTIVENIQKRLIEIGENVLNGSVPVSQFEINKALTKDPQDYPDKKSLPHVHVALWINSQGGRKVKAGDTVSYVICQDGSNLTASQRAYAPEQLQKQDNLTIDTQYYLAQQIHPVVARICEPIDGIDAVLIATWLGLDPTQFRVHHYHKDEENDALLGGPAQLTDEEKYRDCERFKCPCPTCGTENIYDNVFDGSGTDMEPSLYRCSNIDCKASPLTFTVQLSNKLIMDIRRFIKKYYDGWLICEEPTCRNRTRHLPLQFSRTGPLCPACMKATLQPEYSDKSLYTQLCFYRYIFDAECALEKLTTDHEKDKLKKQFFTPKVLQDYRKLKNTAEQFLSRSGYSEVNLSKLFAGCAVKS
- MEASUREMENT_DESCRIPTION: DNA polymerase inhibition, DNA pol α
- Format: biochemical
- RUN_PARAMETERS: read-out: IC50 DNA pol α dGTP; calf thymus DNA, radiolabeled [3H]dGTP
MEASUREMENT_LABEL: pIC50
pIC50 is defined as minus the log10 of a concentration measured in mol/L.

Q: Quick check: pIC50 of O=C(O)P(=O)(O)O [PFA pyrophosphate] ?
Ans: 4.25

* * *

- Test system: Vaccinia virus
- MEASUREMENT_DESCRIPTION: microbe, parasite or virus in culture
- Format: cell-based
- RUN_PARAMETERS: Orthopoxvirus vaccinia, HEL, read-out: Antiviral activity EC50 Vaccinia virus
pEC50: −log10 of the molar value.
List of pEC50 values.

| COMPOUND | pEC50 |
| --- | --- |
| O=c1[nH]c(=O)c2ncn(C[C@@H](CO)OCP(=O)(O)O)c2[nH]1 | 4.41 |

Turning to the following compound.
Q: Quick check: pEC50 of `O=c1[nH]c(=O)c2ncn(CCOCP(=O)(O)O)c2[nH]1` ?
Ans: < 3.46

* * *

List of Cytotoxicity Cell morphology (MCC) values.
- Tested on: HEL cells
- MEASUREMENT_DESCRIPTION: Cytotoxicity, alteration of cell morphology
- Format: cell-based, human
- RUN_PARAMETERS: Table 2

| MOLECULE | Cytotoxicity Cell morphology (MCC) |
| --- | --- |
| Nc1nc(O)c2ncn(COC(CO)CO)c2n1 [Ganciclovir, ganciclovir, reference compound] | >100 μM |
| O=c1[nH]c(=O)n([C@H]2C[C@H](O)[C@@H](CO)O2)cc1/C=C/Br [Brivudin, brivudin, reference compound] | >250 μM |
| O=c1[nH]c(=O)c2ncn(CC(CO)OCP(=O)(O)O)c2[nH]1 (racemic) [Compound 5] | >100 μM |
| Nc1nc2c(ncn2COCCO)c(=O)[nH]1 [Acyclovir, acyclovir, reference compound] | >250 μM |

Turning to the following molecule.
Q: Item O=c1[nH]c(=O)c2ncn(C[C@@H](CO)OCP(=O)(O)O)c2[nH]1 [Compound 6] with HEL cells - Cytotoxicity Cell morphology (MCC)?
Ans: >100 μM

* * *

- ASSAY_TARGET: HCMV DNA pol (Human cytomegalovirus, UniProt P08546)
- MEASUREMENT_DESCRIPTION: DNA polymerase inhibition, HCMV DNA pol
- Format: biochemical
- RUN_PARAMETERS: read-out: IC50 HCMV DNA pol dTTP; calf thymus DNA, radiolabeled [3H]dTTP
MEASUREMENT_LABEL: IC50 (µM)
Number in µM, nothing else.

Q: Quick check: IC50 of O=C(O)P(=O)(O)O [PFA pyrophosphate] ?
Ans: 9.4

* * *

- System: HEL cells
- MEASUREMENT_DESCRIPTION: Cytotoxicity, alteration of cell morphology
- Assay type: cell-based, human
- RUN_PARAMETERS: Table 1
MEASUREMENT_LABEL: Cytotoxicity Cell morphology (MCC)

| COMPOUND | Cytotoxicity Cell morphology (MCC) |
| --- | --- |
| O=c1[nH]c(=O)c2ncn(CCOCP(=O)(O)O)c2[nH]1 [Compound 4] | >345 μM |
| C[C@H](Cn1cnc2c(=O)[nH]c(=O)[nH]c21)OCP(=O)(O)O [Compound 9] | >100 μM |
| O=c1[nH]c(=O)n([C@H]2C[C@H](O)[C@@H](CO)O2)cc1/C=C/Br [Brivudin, brivudin, reference compound] | >300 μM |
| O=c1[nH]c(=O)c2ncn(C[C@@H](CF)OCP(=O)(O)O)c2[nH]1 [Compound 8] | >329 μM |
| O=c1[nH]c(=O)c2ncn(C[C@@H](CO)OCP(=O)(O)O)c2[nH]1 [Compound 6] | >300 μM |

Q: Quick check: Cytotoxicity Cell morphology (MCC) of O=c1[nH]c(=O)c2ncn(CC(CO)OCP(=O)(O)O)c2[nH]1 (racemic) [Compound 5] ?
Ans: ≥300 μM

Q: Quick check: Cytotoxicity Cell morphology (MCC) of O=c1[nH]c(=O)c2ncn(C[C@H](CF)OCP(=O)(O)O)c2[nH]1 [Compound 7] ?
Ans: >313 μM

* * *

- ASSAY_TARGET: HCMV DNA pol (Human cytomegalovirus)
- Sequence (P08546 1-1242): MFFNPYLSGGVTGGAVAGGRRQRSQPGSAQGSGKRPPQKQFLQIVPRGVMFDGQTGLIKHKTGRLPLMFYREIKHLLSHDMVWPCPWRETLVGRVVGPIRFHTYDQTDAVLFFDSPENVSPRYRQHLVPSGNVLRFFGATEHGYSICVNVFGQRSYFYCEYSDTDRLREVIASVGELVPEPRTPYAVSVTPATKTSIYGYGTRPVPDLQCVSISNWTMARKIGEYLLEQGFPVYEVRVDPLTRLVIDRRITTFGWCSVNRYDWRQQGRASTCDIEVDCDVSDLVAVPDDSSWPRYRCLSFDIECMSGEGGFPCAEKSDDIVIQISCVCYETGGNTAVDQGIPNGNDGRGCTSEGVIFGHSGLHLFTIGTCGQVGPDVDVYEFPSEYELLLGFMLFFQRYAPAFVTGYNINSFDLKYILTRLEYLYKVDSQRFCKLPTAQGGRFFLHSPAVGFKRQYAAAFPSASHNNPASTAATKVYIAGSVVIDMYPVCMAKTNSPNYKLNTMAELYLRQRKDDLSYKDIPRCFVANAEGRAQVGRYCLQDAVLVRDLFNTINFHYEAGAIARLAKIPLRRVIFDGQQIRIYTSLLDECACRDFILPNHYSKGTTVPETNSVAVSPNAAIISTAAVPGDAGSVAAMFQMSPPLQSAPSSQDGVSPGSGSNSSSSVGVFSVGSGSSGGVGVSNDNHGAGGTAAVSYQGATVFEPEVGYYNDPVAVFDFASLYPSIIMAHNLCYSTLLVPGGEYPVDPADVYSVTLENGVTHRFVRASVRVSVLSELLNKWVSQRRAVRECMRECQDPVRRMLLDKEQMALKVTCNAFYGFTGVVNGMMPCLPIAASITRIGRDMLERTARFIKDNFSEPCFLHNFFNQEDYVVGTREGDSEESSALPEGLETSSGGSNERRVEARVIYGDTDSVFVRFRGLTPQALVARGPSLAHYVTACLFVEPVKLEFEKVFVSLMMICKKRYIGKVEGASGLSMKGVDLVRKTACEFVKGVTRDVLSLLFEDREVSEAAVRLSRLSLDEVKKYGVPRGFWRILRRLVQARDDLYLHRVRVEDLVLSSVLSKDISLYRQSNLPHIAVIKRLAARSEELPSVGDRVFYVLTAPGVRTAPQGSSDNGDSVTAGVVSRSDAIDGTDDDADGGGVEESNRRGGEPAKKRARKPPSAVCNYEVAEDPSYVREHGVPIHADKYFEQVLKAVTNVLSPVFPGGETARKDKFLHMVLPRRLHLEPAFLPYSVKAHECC
- MEASUREMENT_DESCRIPTION: DNA polymerase inhibition, HCMV DNA pol
- Type: biochemical
- RUN_PARAMETERS: IC50 HCMV DNA pol dGTP, calf thymus DNA, radiolabeled [3H]dGTP
MEASUREMENT_LABEL: IC50 (nM)
Number in nM, nothing else.

Q: Quick check: IC50 of Nc1nc2c(ncn2COCCOP(=O)(O)OP(=O)(O)OP(=O)(O)O)c(=O)[nH]1 [ACV-TP, acyclovir triphosphate] ?
Ans: 770

Origin of the recorded values: paper PMC6287304
